test: Aqueous solubility of compound by LC-MS/MS analysis; format: physicochemical
observable: solubility

[Q] Field request: solubility | item: `COc1cc2ncnc(Nc3c(F)ccc(O)c3C)c2cc1OC`
[A] > 100 µM
